Kindly state IC90 for each of the entries shown.
system: NCI-H460 cells; assay: Clonogenic assay - oxygen dependence; conditions: Homo sapiens, NCI-H460, read-out: IC90 H460 N2
Give bare numbers, in nM.

[[record]]
compound = "COC(=O)c1cc(C(C)OP(=O)(NCCBr)NCCBr)ccc1OCc1cnc([N+](=O)[O-])n1C (stereo not drawn)"
study_system = "NCI-H460 cells"
reported_value = 2000

[[record]]
compound = "Cn1c(COP(=O)(NCCBr)NCCBr)cnc1[N+](=O)[O-]"
study_system = "NCI-H460 cells"
reported_value = 100

[[record]]
compound = "C[C@H](CCl)NP(=O)(N[C@H](C)CCl)OCc1cnc([N+](=O)[O-])n1C"
study_system = "NCI-H460 cells"
reported_value = 200

[[record]]
compound = "Cn1c(COP2(=O)N(CCBr)CCCN2CCBr)cnc1[N+](=O)[O-]"
study_system = "NCI-H460 cells"
reported_value = 500

[[record]]
compound = "O=[N+]([O-])c1ccc(COP(=O)(NCCBr)NCCBr)o1"
study_system = "NCI-H460 cells"
reported_value = 70


Could you now consider this next compound?
Consider O=[N+]([O-])c1ccc(COP(=O)(NCCCl)NCCCl)o1 . Its measured IC90 is 300

====

test: in vivo; conditions: CD-1, mouse, ip, 50 mg/kg
attribute.measured: Cmax (ng/mL)
One number for each entry, in ng/mL.

Consider the following illustrative entries.
[[record]]
compound = "O=[N+]([O-])c1ccc(COP(=O)(NCCCl)NCCCl)o1 [Compound 23]"
result_unit = "ng/mL"
reported_value = 8500

[[record]]
compound = "Cn1c(COP(=O)(NCCCl)NCCCl)cnc1[N+](=O)[O-] [Compound 36]"
result_unit = "ng/mL"
reported_value = 44000

[[record]]
compound = "O=[N+]([O-])c1ccc(COP(=O)(NCCBr)NCCBr)o1 [Compound 24]"
result_unit = "ng/mL"
reported_value = 7600


Could you now consider this next compound?
Consider CN(CCCl)P(=O)(OCc1cnc([N+](=O)[O-])n1C)N(C)CCCl [Compound 5] . Its measured Cmax is 3000

====

experiment: In vivo plasma or tumor pharmacokinetics of Compound 25 (Table 4); set-up: species or system CD-1 mice (nude mice where noted); conditions: CD-1, mouse, plasma, iv, 50 mg/kg, 50 mg/kg i.v., 30% PEG/70% Saline, CD-1 mice
attribute.measured: Tmax (min)
One number for each entry, in min.

Consider Cn1c(COP(=O)(NCCBr)NCCBr)cnc1[N+](=O)[O-] . Its measured Tmax is 2

====

Kindly state half-life for each of the entries shown.
experiment: in vivo; details: CD-1, mouse, iv, 50 mg/kg
Give bare numbers, in min.

Consider the following illustrative entries.
[[record]]
smiles_entry = "CN(CCCl)P(=O)(OCc1cnc([N+](=O)[O-])n1C)N(C)CCCl"
result_unit = "min"
reported_value = 4.67

[[record]]
smiles_entry = "Cn1c(COP(=O)(NCCCl)NCCCl)cnc1[N+](=O)[O-]"
result_unit = "min"
reported_value = 14.1


Consider O=[N+]([O-])c1ccc(COP(=O)(NCCCl)NCCCl)o1 . Its measured half-life is 8.87

====

experiment: in vivo; details: CD-1, mouse, iv, 20 mg/kg
attribute.measured: Cmax (ng/mL)
Answers are plain numbers, in ng/mL.

Consider C[C@H](CCl)NP(=O)(N[C@H](C)CCl)OCc1cnc([N+](=O)[O-])n1C . Its measured Cmax is 15000

Data origin, for the record: patent US8507464B2
